Recorded values, source ChEMBL document CHEMBL3621084.

assay: AUC (0 to infinity) in Wistar-Hanover rat at 2 mg/kg, po by LC-MS/MS method; format: ADME, organism-based; design: dose 2 mg/kg, route oral, time infinity; details: in vivo
ATTRIBUTE MEASURED: AUC(0-inf) (µM·h)
Numbers only, in µM·h.

Fill blank: measured AUC(0-inf) of the molecule O=C1N[C@]2(CC[C@H]3C[C@H]32)n2c1c1c(c(O)c2=O)C(=O)N(Cc2ccc(F)c(Cl)c2)CC1 is ____.
189
